Origin of the recorded values: the RNAGym collection of RNA variant scans (doi:10.1073/pnas.2313332121)

Measured polymerase ribozyme fitness (log ratio) accompanies every entry in the list below.
B1: TPR t1 (parent)
chain: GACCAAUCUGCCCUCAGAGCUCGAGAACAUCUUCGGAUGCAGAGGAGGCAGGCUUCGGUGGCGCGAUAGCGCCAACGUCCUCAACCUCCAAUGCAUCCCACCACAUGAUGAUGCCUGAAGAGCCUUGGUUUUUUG

# Variants of: B1
# ASSAY SUMMARY: polymerase ribozyme fitness, log enrichment relative to wild type (log ratio); higher = more active; in vitro selection for triplet polymerase activity

Known results for variants:
GACCAAUCUGCCCUCAGAGCUCGAGAACAUCUUCGGAUGCAGAGGAGGCAGGCUUCGGAGGCGCGAUAGCGCCAACGUCCCCAACCACCAAUGCAUCCCACCACAUGAUGAUGCCUGAAGAGCCUUGGUUUUUUG -1.17
GACCAAUCUGCCCUCAGAGCUCGAGAACAUCUUCGGAUGCAGAGGAGGCAGGCUUCGGUGGCGCGAUAGCACCAACGUCCUCAACCUCCAAUGCAUCCCAUCACAUGAUGAUGCCUGAAGAGCCUUGGUUUUUUG -0.59
GACCAAUCUGCCCUCAGAGCUUGAGAACAUCUUCGGAUGCAGACGAGGCAGGCUUCGGUGGCGCGAUAGCGCCAACGUCCUCAACCUCCAAUGCAUCCCACCACAUGAUGAUGCCUGAAGAGCCUUGGUUUUUUG -4.2
GACCAAUCUGCCCUCAGAGCUCGAGAACAUCUUCGGAUGCAGAGGAGGCAGGCUUCGGUGGCGCGAUAGCGCCAACGUCCUCAUCCUCCAAUGCAUCCCACCACAUGAUGAUGCCUGAAGAGCCUUGGUUUUAUG -0.823

Proceeding to the next variant to report its polymerase ribozyme fitness (log ratio).
Challenge: Return polymerase ribozyme fitness (log ratio) (reported value) for this variant: GACCAAUCUGCUCUCAGAGCUCGAGAACAUCUUCGGAGGCAGAGGAGGCAGGCUUCGGUGGCGCGAUAGCGGCAACGUCCUCAACCUCCAAUGCAUCCCACCACAUGAUGAUGCCUGAAGAGCCUUGGUUUUUUG
Response given: -0.666
